Assay: Aqueous solubility of alcohols
Settings: water
Measured Attribute: Aqueous Solubility (g %)
Report only the number, with the unit g % understood.

Please indicate Aqueous Solubility recorded for CCCCCCCCO
0.05

Give me measured Aqueous Solubility, please, for this compound: CC(C)CCO
2.0

// next entry
Item CCCCCCC(C)O (centres unmarked) : provide Aqueous Solubility
0.05
